# TEST_SYSTEM: DNA topoisomerase 2-alpha (Homo sapiens)
# EXPERIMENT: Inhibition of topoisomerase 2 (unknown origin)-mediated kinetoplast DNA decatenation assessed as intensity of supercoiled DNA after 30 mins by agarose gel electrophoresis relative to etoposide
fold change (FC) of 1 or higher: yes (1). Under 1: no (0).

COMPOUND_STRUCTURE_STRING | TEST_SYSTEM | GROUP
CC1(C)CC[C@]2(C(=O)O)CC[C@]3(C)C(=CC[C@@H]4[C@@]5(C)CC[C@H](OS(=O)(=O)c6ccccc6)C(C)(C)[C@@H]5CC[C@]43C)[C@@H]2C1 | DNA topoisomerase 2-alpha (Homo sapiens) | no (0)
C=CCNC(=O)O[C@H]1CC[C@]2(C)[C@H]3CC=C4[C@@H]5CC(C)(C)CC[C@]5(C(=O)O)CC[C@@]4(C)[C@]3(C)CC[C@H]2C1(C)C | DNA topoisomerase 2-alpha (Homo sapiens) | yes (1)
CC1(C)CC[C@]2(C(=O)O)CC[C@]3(C)C(=CC[C@@H]4[C@@]5(C)CC[C@H](OC(=O)NCc6ccccc6)C(C)(C)[C@@H]5CC[C@]43C)[C@@H]2C1 | DNA topoisomerase 2-alpha (Homo sapiens) | yes (1)
CC1(C)CC[C@]2(C(=O)O)CC[C@]3(C)C(=CC[C@@H]4[C@@]5(C)CC[C@H](OC(=O)Nc6ccc(-c7ccccc7)cc6)C(C)(C)[C@@H]5CC[C@]43C)[C@@H]2C1 | DNA topoisomerase 2-alpha (Homo sapiens) | yes (1)
CC1(C)CC[C@]2(C(=O)O)CC[C@]3(C)C(=CC[C@@H]4[C@@]5(C)CC[C@H](OC(=O)Nc6cccc7ccccc67)C(C)(C)[C@@H]5CC[C@]43C)[C@@H]2C1 | DNA topoisomerase 2-alpha (Homo sapiens) | yes (1)

Kindly consider the entry below.
Form field: fold change (FC) at least 1? Entry: `CC1(C)CC[C@]2(C(=O)NCc3ccccc3)CC[C@]3(C)C(=CC[C@@H]4[C@@]5(C)CC[C@H](OC(=O)NCc6ccccc6)C(C)(C)[C@@H]5CC[C@]43C)[C@@H]2C1`
yes (1)

----------
# TEST_SYSTEM: DNA topoisomerase 1 (Homo sapiens) (UniProt P11387)
# Sequence (P11387 whole entry): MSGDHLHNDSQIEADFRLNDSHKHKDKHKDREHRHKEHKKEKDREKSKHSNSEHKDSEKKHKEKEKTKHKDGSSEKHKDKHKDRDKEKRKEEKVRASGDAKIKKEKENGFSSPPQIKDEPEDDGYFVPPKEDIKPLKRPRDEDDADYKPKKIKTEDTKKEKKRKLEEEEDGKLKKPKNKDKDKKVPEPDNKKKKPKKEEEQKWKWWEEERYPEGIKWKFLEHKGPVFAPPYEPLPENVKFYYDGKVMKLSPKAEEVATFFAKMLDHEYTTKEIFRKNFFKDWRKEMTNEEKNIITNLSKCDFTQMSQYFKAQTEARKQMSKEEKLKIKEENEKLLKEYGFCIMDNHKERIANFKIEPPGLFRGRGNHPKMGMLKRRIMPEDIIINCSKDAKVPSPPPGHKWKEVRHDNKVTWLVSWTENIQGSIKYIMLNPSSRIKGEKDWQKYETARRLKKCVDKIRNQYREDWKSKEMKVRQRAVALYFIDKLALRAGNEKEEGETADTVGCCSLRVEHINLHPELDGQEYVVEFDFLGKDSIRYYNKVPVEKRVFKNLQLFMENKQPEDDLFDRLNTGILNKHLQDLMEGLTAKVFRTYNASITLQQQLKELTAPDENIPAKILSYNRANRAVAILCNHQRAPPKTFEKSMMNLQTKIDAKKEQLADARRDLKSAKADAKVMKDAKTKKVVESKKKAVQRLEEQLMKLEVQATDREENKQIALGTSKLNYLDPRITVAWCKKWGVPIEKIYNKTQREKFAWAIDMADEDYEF
# EXPERIMENT: Inhibition of topoisomerase 1 (unknown origin)-mediated relaxation of supercoiled plasmid DNA assessed as concentration of the compound exhibiting activity of 100 uM camptothecin after 30 mins by agarose gel electrophoresis
PARAMETER_MEASURED: log10 of Activity (log10 of the value in µM)
Lab note - Activity converted to log10 from values in µM.

Provide value of log10 of Activity for this record tested with DNA topoisomerase 1 (Homo sapiens) (UniProt P11387): `CC1(C)CC[C@]2(C(=O)NS(=O)(=O)c3ccccc3)CC[C@]3(C)C(=CC[C@@H]4[C@@]5(C)CC[C@H](OC(=O)NS(=O)(=O)c6ccccc6)C(C)(C)[C@@H]5CC[C@]43C)[C@@H]2C1`
1.36

Provide value of log10 of Activity for this record tested with DNA topoisomerase 1 (Homo sapiens) (UniProt P11387): `CC1(C)CC[C@]2(C(=O)O)CC[C@]3(C)C(=CC[C@@H]4[C@@]5(C)CC[C@H](O)C(C)(C)[C@@H]5CC[C@]43C)[C@@H]2C1`
2.42

Provide value of log10 of Activity for this record tested with DNA topoisomerase 1 (Homo sapiens) (UniProt P11387): `C=CCNC(=O)O[C@H]1CC[C@]2(C)[C@H]3CC=C4[C@@H]5CC(C)(C)CC[C@]5(C(=O)O)CC[C@@]4(C)[C@]3(C)CC[C@H]2C1(C)C`
1.18

Provide value of log10 of Activity for this record tested with DNA topoisomerase 1 (Homo sapiens) (UniProt P11387): `CC1(C)CC[C@]2(C(=O)NCc3ccccc3)CC[C@]3(C)C(=CC[C@@H]4[C@@]5(C)CC[C@H](OC(=O)NCc6ccccc6)C(C)(C)[C@@H]5CC[C@]43C)[C@@H]2C1`
1.40

Provide value of log10 of Activity for this record tested with DNA topoisomerase 1 (Homo sapiens) (UniProt P11387): `CC1(C)CC[C@]2(C(=O)O)CC[C@]3(C)C(=CC[C@@H]4[C@@]5(C)CC[C@H](OC(=O)NCc6ccccc6)C(C)(C)[C@@H]5CC[C@]43C)[C@@H]2C1`
1.21

Provide value of log10 of Activity for this record tested with DNA topoisomerase 1 (Homo sapiens) (UniProt P11387): `CC1(C)CC[C@]2(C(=O)Nc3cccc4ccccc34)CC[C@]3(C)C(=CC[C@@H]4[C@@]5(C)CC[C@H](OC(=O)Nc6cccc7ccccc67)C(C)(C)[C@@H]5CC[C@]43C)[C@@H]2C1`
1.24
